Every entry's value here was drawn from patent US4774251A.

- TEST_TARGET: aromatase (Rattus norvegicus, UniProt P22443)
- Construct: ovarian microsomes are obtained from rats treated with pregnant mares serum gonadotropin; from tissue; host or cells: ovarian microsomes from rats treated with pregnant mares serum gonadotropin
- Sequence (P22443 whole entry): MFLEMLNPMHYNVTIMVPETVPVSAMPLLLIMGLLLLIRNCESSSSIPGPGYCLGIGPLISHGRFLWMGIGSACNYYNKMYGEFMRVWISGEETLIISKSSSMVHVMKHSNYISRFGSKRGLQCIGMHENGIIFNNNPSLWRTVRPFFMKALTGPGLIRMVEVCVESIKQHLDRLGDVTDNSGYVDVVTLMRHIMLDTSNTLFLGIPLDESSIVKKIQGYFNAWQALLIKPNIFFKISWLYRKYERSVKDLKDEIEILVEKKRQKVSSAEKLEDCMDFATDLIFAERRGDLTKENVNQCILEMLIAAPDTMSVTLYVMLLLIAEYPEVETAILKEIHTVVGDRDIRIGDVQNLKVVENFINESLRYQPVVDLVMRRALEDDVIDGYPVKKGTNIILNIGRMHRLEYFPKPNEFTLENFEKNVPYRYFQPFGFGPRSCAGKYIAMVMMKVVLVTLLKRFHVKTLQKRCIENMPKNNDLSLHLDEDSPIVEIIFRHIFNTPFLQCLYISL
- MEASUREMENT_PROTOCOL: Aromatase inhibition in the rat ovarian microsome assay
- Assay type: biochemical
- CONDITION_INFO: rat ovarian microsomes; substrate 4-androstene-3,17-dione 0.1 μM; [3H]-H2O release
pEC50: −log10 of the molar value.
# binarize pEC50: threshold 6 inclusive, high side Fulfilled, low side Not fulfilled

Examples from the recorded data:
> print(dat)
                                   molecule  assigned.category
1       Fc1ccc(N(Cc2ccccc2)Cc2cccnc2)c(F)c1          Fulfilled
2  CN(c1ccc(Cl)cc1)C(c1ccccc1)c1cccnc1 (stereo not shown)      Not fulfilled
3  CCCCN(c1ccc(F)cc1)C(C)c1cccnc1 (stereo not shown)          Fulfilled
4              CCCCN(Cc1cccnc1)c1ccc(C)cc1C          Fulfilled
5  Fc1ccc(C(Nc2ccccc2Cl)c2cccnc2)cc1 (stereo not shown)          Fulfilled

Then this molecule:
Check this molecule for pEC50 at or above 6: CC(c1cccnc1)N(C)c1ccc(Cl)cc1 (stereo not shown)
Not fulfilled
